Where do these numbers come from? They come from ChEMBL document CHEMBL5665443.

- measured_on: Endonuclease 8-like 2 (Homo sapiens) (UniProt Q969S2)
- Sequence (whole entry): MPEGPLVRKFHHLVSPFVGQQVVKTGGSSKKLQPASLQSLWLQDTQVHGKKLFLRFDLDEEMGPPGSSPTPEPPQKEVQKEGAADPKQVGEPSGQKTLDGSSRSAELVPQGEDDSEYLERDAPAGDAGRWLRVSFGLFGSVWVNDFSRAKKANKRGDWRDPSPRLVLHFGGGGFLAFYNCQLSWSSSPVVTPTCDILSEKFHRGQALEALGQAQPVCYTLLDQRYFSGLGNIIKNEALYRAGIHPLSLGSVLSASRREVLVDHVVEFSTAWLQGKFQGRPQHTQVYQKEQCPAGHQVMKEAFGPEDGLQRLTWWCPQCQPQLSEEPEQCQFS
- condition: Compound Concentration 10.0 uM, Hit No
- Description: Inhibition of NEIL2 by quantifying inhibition of NEIL2-mediated cleavage and dissociation of quenched duplex DNA oligonucleotides, measured as fluorescence at 594 nm.
property_name: inhibition (%)
Give a bare numeral; the unit % is implied.

# returns recorded inhibition (system: Endonuclease 8-like 2 (Homo sapiens) (UniProt Q969S2)) for COc1ccc(S(=O)(=O)N2c3ccc(Cl)cc3[C@](O)(c3ccccc3Cl)[C@@H]2C(=O)N2CCC[C@H]2C(N)=O)cc1OC
-0.733

# returns recorded inhibition (system: Endonuclease 8-like 2 (Homo sapiens) (UniProt Q969S2)) for CN(CCOc1ccc(C[C@H](Nc2ccccc2C(=O)c2ccccc2)C(=O)O)cc1)c1ccccn1
4.36

# returns recorded inhibition (system: Endonuclease 8-like 2 (Homo sapiens) (UniProt Q969S2)) for C[C@H](Cc1cc2c(c(C(N)=O)c1)N(CCCO)CC2)NCCOc1ccccc1OCC(F)(F)F
-1.48

# returns recorded inhibition (system: Endonuclease 8-like 2 (Homo sapiens) (UniProt Q969S2)) for CC(=O)Nc1c(F)cc(C(=O)N[C@H]2CC[C@H](O)CC2)cc1O[C@@H](C)c1ccccc1
-0.489

# returns recorded inhibition (system: Endonuclease 8-like 2 (Homo sapiens) (UniProt Q969S2)) for CC(/C=C1\SC(=S)N(CCCC(=O)Nc2ccc(C(=O)O)c(O)c2)C1=O)=C\c1ccccc1
13.7

# returns recorded inhibition (system: Endonuclease 8-like 2 (Homo sapiens) (UniProt Q969S2)) for CC1CCN(c2ccnc(NCc3cn(C)cn3)n2)CC1
3.08

# returns recorded inhibition (system: Endonuclease 8-like 2 (Homo sapiens) (UniProt Q969S2)) for Cn1c(C2(NC(=O)c3ccc(NCC4CCCCC4)nc3)CCC2)nc2ccc(/C=C/C(=O)O)cc21
5.38

# returns recorded inhibition (system: Endonuclease 8-like 2 (Homo sapiens) (UniProt Q969S2)) for N/C(=N\C(=O)c1nc(Cl)c(N)nc1N)NCc1ccccc1
15.2

# returns recorded inhibition (system: Endonuclease 8-like 2 (Homo sapiens) (UniProt Q969S2)) for CC(C)(O)c1cn(-c2ccc(-c3cccc(S(C)(=O)=O)c3)cc2)c(C(C)(C)c2ccccc2Cl)n1;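 note: fluorescence at 594 nm reports NEIL2 cutting and release of a quenched double-stranded DNA oligo substrate, reduced signal read as inhibition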
-6.36

---

- measured_on: UniProt Q9UIF7
- Sequence (Q9UIF7 whole entry): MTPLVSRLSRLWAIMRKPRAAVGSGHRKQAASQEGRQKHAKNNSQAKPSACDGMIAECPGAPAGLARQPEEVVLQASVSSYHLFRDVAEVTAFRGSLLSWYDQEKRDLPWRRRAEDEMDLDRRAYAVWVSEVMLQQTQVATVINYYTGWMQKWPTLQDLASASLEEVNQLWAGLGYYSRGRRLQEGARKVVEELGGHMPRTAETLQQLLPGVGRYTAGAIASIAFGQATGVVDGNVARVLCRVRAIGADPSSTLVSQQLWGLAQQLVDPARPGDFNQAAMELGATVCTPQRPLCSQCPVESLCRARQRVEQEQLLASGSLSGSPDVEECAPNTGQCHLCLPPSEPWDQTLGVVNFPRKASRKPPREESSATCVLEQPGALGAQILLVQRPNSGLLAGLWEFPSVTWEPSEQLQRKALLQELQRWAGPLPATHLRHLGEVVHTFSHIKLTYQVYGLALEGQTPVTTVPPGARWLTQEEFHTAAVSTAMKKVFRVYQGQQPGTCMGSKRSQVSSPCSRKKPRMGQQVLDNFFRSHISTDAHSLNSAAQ
- condition: Compound Concentration 10.0 uM, Hit No
- Description: Inhibition of MUTYH by quantifying inhibition of MUTYH-mediated cleavage and dissociation of quenched duplex DNA oligonucleotides, measured as fluorescence at 594 nm. To generate a functional strand incision and increase turn-over this assay is coupled to APE1.
property_name: inhibition (%)
Give a bare numeral; the unit % is implied.

Endpoint output: inhibition of CSc1cc2c(cc1C(F)(F)F)N(C(=O)Nc1cccnc1)CC2 . Value?
-9.06

Endpoint output: inhibition of CN(C)CCCc1cc(C(=O)Nc2ccc(-c3ccncc3)cc2)ccc1O . Value?
5.24

Endpoint output: inhibition of c1ccc(NCc2ccc(CNc3ccccn3)cc2)nc1 . Value?
-5.87

Endpoint output: inhibition of O=C(N[C@H]1CCCCC/C=C\C2C[C@@]2(C(=O)O)NC(=O)[C@@H]2C[C@@H](Oc3ccncc3)CN2C1=O)OC1CCCC1 (stereo not given in full) . Value?
1.97

Endpoint output: inhibition of Nc1c(C(=O)NCc2ccc(C(=O)NCCCC3CCCCC3)cc2)cnn1-c1ccccc1 . Value?
5.04

Endpoint output: inhibition of CC(C)(O)c1cncc(-c2nc3ccc(F)cc3n2C2CC2)c1 . Value?
11.5

Endpoint output: inhibition of COc1ccc(CNC(=O)c2cc(-c3cncc(Cl)c3)cnc2-c2ccccn2)nc1OC . Value?
-1

Endpoint output: inhibition of CC(C)c1onc(-c2c(Cl)cccc2Cl)c1COc1ccc(/C=C/c2cccc(C(=O)O)c2)c(Cl)c1 . Value?
0.66

Endpoint output: inhibition of CN1CCN(c2ccnc(NCCc3ccccc3)n2)CC1 . Value?
16.7

Endpoint output: inhibition of CCCCC/C=C\C/C=C\C/C=C\C/C=C\CCCC(=O)OC(CO)CO . Value?
14.2
